Target: T1, SMG5–7 TPR complex (heterodimer of SMG5 TPR and SMG7 TPR) (human, UniProt Q9UPR3 1-803; Q92540 1-499, Δ408–632)
T1 construct: SMG5, human, residues 1–803 with the predicted insertion 408–632 removed (SMG5 TPR); SMG7, human, residues 1–499 (SMG7 TPR); Written SMG5-His and His-(TEV)-SMG7 in the methods; also called SMG5–SMG7; SMG5–7 TPR heterodimer; not shown: His, N-terminal, cleaved; copies: 1 + 1
T1 sequence (looked up) 1: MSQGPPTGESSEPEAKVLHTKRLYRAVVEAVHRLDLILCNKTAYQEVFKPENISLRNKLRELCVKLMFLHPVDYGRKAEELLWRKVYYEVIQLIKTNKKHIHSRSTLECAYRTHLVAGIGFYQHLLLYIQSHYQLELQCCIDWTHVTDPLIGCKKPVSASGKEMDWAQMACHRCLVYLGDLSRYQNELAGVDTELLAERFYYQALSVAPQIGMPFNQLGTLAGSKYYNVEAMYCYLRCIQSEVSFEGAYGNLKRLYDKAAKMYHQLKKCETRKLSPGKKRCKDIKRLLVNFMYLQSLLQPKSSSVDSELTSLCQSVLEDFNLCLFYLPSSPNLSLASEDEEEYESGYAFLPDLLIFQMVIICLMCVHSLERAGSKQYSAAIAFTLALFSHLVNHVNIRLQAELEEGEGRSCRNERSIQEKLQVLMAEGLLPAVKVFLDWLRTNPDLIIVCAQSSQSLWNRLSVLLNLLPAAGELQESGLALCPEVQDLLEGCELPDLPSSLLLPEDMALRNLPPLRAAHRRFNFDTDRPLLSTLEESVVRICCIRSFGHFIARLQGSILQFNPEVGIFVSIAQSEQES
T1 sequence (looked up) 2: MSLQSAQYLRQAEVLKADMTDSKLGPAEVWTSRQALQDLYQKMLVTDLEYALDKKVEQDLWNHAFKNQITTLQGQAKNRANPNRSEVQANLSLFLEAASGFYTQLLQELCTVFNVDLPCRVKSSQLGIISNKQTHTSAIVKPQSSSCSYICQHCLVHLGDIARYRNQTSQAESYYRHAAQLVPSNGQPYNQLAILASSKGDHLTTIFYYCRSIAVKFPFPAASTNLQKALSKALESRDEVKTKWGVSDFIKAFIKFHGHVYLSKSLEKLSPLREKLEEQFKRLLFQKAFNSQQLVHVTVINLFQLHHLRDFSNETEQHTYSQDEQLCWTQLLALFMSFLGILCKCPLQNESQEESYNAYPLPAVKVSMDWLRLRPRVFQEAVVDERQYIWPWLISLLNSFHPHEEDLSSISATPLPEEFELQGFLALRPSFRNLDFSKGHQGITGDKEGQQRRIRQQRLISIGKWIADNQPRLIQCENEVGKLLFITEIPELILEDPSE
Assay: pull-down; GST pull-down, one prey: ∼2 μg GST-tagged bait with equal amount of untagged prey in 20 mM HEPES pH 7.5, 125 mM NaCl, 2% glycerol, 2 mM DTT (45 μl), 45 min at room temperature; glutathione–Sepharose beads in 20 mM HEPES pH 7.5, 150 mM NaCl, 10% glycerol, 2 mM DTT, 0.1% NP-40, 1 h at 4°C; eluted with glutathione; SDS-PAGE, Coomassie; GST-UPF1 constructs pre-treated with SMG1 wt or SMG1 KD where indicated
Conditions: both partners purified
Ends that are not written are not given here.

{"binder": "GST-UPF1CT (residues 917–1118) phosphorylated in vitro by SMG1 wt (domain or fragment, human, UniProt Q92900-2 917-1118, looked up, phosphorylated in vitro by SMG1 at SQ motifs; sites not stated for this construct, also called C-terminal tail of UPF1; source: E. coli BL21 (DE3) STAR pRARE, purified, then phosphorylated in vitro with SMG1 wt) RKLVNTINPGARFMTTAMYDAREAIIPGSVYDRSSQGRPSSMYFQTHDQIGMISAGPSHVAAMNIPIPFNLVMPPMPPPGYFGQANGPAAGRGTPKGKTGRGGRQKNRFGLPGPSQTNLPNSQASQDVASQPFSQGALTQGYISMSQPSQMSQPGLSQPELSQDSYLGDEFKSQIDVALSQDSTYQGERAYQHGGVTGLSQY", "binding result": "binds"}
{"binder": "{GST}-EFKSQIDVALSQDSTYQGERAYQHGGVTGLSQY (domain or fragment, human, UniProt Q92900-2 1086-1118, looked up, also: phosphorylated in vitro by SMG1 at SQ motifs, sites not given here, source: E. coli, purified, then phosphorylated in vitro with SMG1 wt) [GST-UPF1CT4 (residues 1086–1118) phosphorylated in vitro by SMG1 wt]", "binding result": "binds"}
{"binder": "GST-UPF1CT1 (residues 1052–1118) phosphorylated in vitro by SMG1 wt (domain or fragment, human, UniProt Q92900-2 1052-1118, looked up, also: phosphorylated in vitro by SMG1 at SQ motifs, sites not given here, source: E. coli, purified, then phosphorylated in vitro with SMG1 wt) {GST}-GALTQGYISMSQPSQMSQPGLSQPELSQDSYLGDEFKSQIDVALSQDSTYQGERAYQHGGVTGLSQY", "binding result": "binds"}
{"binder": "PGLSQPELSQDSYLGDEFKSQIDVALSQDSTYQGERAYQHGGVTGLSQY (domain or fragment, human, UniProt Q92900-2 1070-1118, looked up, not fully specified (N-terminus); also: phosphorylated in vitro by SMG1, sites not given here, GST fusion partner not in chain, source: E. coli, purified, then phosphorylated in vitro with SMG1 wt) [GST-UPF1CT2 (residues 1070–1118) phosphorylated in vitro by SMG1 wt]", "binding result": "binds"}
